// compounds with IC50 on Vascular endothelial growth factor receptor 2 (Homo sapiens, UniProt P35968), multi-source literature
# Fulfilled = IC50 below 20 nM (exclusive); Not fulfilled = IC50 at/above 20 nM

Examples from the recorded data:
[[record]]
compound = "Cn1cc(-c2cc(-c3ccc(N4C[C@@H]5[C@H](CNC(=O)OC(C)(C)C)[C@@H]5C4)nc3)c3c(C#N)cnn3c2)cn1"
assigned_category = "Fulfilled"

[[record]]
compound = "CC(=O)SCC(=O)NCCCCCOc1cc2nccc(Oc3ccc(NC(=O)C4(C(=O)Nc5ccc(F)cc5)CC4)cc3F)c2cc1C(N)=O"
assigned_category = "Fulfilled"

[[record]]
compound = "CCNC(=O)N=S(C)(=O)c1ccc2cc1NCCCCNc1nc(ncc1Br)N2 (racemic)"
assigned_category = "Not fulfilled"

[[record]]
compound = "O=C(Nc1ccc(F)c(Oc2cc(NC(=O)C3CC3)ncn2)c1)Nc1ccc(Cl)c(C(F)(F)F)c1"
assigned_category = "Fulfilled"

[[record]]
compound = "COc1cc(O)c(Cc2cccc(O)c2O)c(O)c1C(=O)/C=C/c1ccccc1"
assigned_category = "Not fulfilled"


Q: Criterion: IC50 strictly below 20 nM. Is it met by Cn1cc(-c2cc(-c3ccc(N4CCN(Cc5ccc(S(C)(=O)=O)cc5)CC4)nc3)c3c(C#N)cnn3c2)cn1 ?
A: Fulfilled

Q: Does this compound meet the criterion IC50 < 20 nM? C=CC(=O)Nc1cc2c(Nc3cccc(Cl)c3F)ncnc2cc1OCCNC(=O)CN(C)C
A: Not fulfilled

Q: Here's an entry: COc1ccc(CN2C3CC2CN(c2ccc(-c4cc(N5CCCC5)cn5ncc(C#N)c45)cn2)C3)cn1 . Is its IC50 below 20 nM?
A: Fulfilled

====

// merged dataset of IC50 values, system = Vascular endothelial growth factor receptor 2 (Homo sapiens, UniProt P35968), multiple refs

Worked examples, 3 molecules total:
[[record]]
molecule = "O=C(Nc1cc(C(F)(F)F)ccc1F)c1ccccc1NCc1ccncc1"
target_or_system = "Vascular endothelial growth factor receptor 2 (Homo sapiens, UniProt P35968)"
result = "2 nM"

[[record]]
molecule = "CCCS(=O)(=O)Nc1ccc(F)c(Nc2ncnc3ccc(-c4ccc(OCCN(C)C)nc4)cc23)c1F"
target_or_system = "Vascular endothelial growth factor receptor 2 (Homo sapiens, UniProt P35968)"
result = "> 3000 nM"

[[record]]
molecule = "C=CC(=O)Nc1cc2c(Nc3ccc(Br)cc3F)ncnc2cc1OCCN"
target_or_system = "Vascular endothelial growth factor receptor 2 (Homo sapiens, UniProt P35968)"
result = "545 nM"


For every item in the list below, what is its measured IC50?
1. COc1cc(OC2CCN(C)CC2(F)F)c2c(Oc3ccc4[nH]c(C)cc4c3F)ncnc2c1 (racemic)
2. COc1cc2nccc(Oc3ccc(NC(=O)c4c(C)nc(C)c(OC)c4O)cc3)c2nc1OC
3. O=C(Nc1ccc(Oc2ncnc3[nH]ncc23)cc1)Nc1cc(C(F)(F)F)cc(C(F)(F)F)c1

A:
1. < 10 nM
2. ≤ 100 nM
3. 24 nM

List IC50 for every entry below, keeping the order given.
1. Nc1nc(NCCc2c[nH]c3ccccc23)cc(-c2cc(-c3ccc(O)cc3)ccc2O)n1
2. CC(C)C(O)C(=O)NC[C@H]1[C@H]2CN(c3ccc(-c4cc(-c5cnn(C)c5)cn5ncc(C#N)c45)cn3)C[C@@H]12 (some centres unmarked)

A:
1. < 1000 nM
2. ≤ 10 nM
